System: Trypanosoma cruzi
Assay: Antiparasitic activity against amastigote form of Trypanosoma cruzi
Please respond with reported pIC50 for every item in the list.
Numbers only, as −log10 of the molar value.

>>> valuemeasured("S=C=NCCOc1ccc(Oc2ccccc2)cc1")
4.33
>>> valuemeasured("CS/C(S)=N/CCOc1ccc(Oc2ccccc2)cc1")
4.56
>>> valuemeasured("C/C=C/c1cc(Oc2ccccc2)ccc1OCCSC#N")
4.85
>>> valuemeasured("Cc1ccc(OCCSC#N)c(C)c1")
5.30
>>> valuemeasured("N#CSCCOc1ccc([S+]([O-])c2ccccc2)cc1 (stereo unspecified)")
4.23

Next, consider the following compound.
The compound listed as N#CSCCOc1ccc(Nc2ccccc2)cc1 has a reported pIC50 of 4.39
